Details: in cyclohexane, 308.95 K
readout: solubility (mole fraction)

Which solubility (mole fraction) value is on record for `CCCCCCCCCCCCCCCCCCCCCC(=O)OCCO` ?
0.041

====

Settings: in trichloroethylene, 306.45 K
readout: solubility (mole fraction)

Which solubility (mole fraction) is reported for this compound? `CCCCCCCCCCCCCCCCCCCCCC(=O)OCCO`
0.0406

====

Conditions: in isopropanol, 302.85 K
readout: solubility (mole fraction)
Lab note: jot the number down without any unit.

What does the data say about its solubility (mole fraction)? Entry: `CCCCCCCCCCCCCCCCCCCC(=O)OCCO`
0.0002

====

Conditions: in n-propanol, 306.05 K
readout: solubility (mole fraction)
Just the number, please, no unit after it.

Entry under review: `CCCCCCCCCCCCCCCCCCCCCC(=O)OCCO` . Reported solubility (mole fraction)?
0.0016

====

Settings: in tetrachloroethylene, 301.95 K
readout: solubility (mole fraction)

I am curious: what solubility (mole fraction) value has been reported for `CCCCCCCCCCCCCCCCCCCCCC(=O)OCCO` ?
0.0005

====

Details: in ethyl acetate, 305.05 K
readout: solubility (mole fraction)
Answer with a number only.

Entry `CCCCCCCCCCCCCCCCCC(=O)OCCO` has what solubility (mole fraction)?
0.065

====

Conditions: in n-pentyl acetate, 314.95 K
readout: solubility (mole fraction)
The answer should be a number; do not append a unit.

For `CCCCCCCCCCCCCCCCCC(=O)OCCO` , what is its reported solubility (mole fraction)?
0.316

====

Conditions: in ethyl acetate, 308.75 K
readout: solubility (mole fraction)
Provide a numeric answer; units are not to be included.

Given the compound `CCCCCCCCCCCCCCCCCC(=O)OCCO` , what is its reported solubility (mole fraction)?
0.125

====

Details: in ethanol, 305.35 K
readout: solubility (mole fraction)

Query: solubility (mole fraction); subject: `CCCCCCCCCCCCCCCCCCCCCC(=O)OCCO`
0.0003

====

Settings: in 1,1,2-trichlorotrifluoroethane, 303.45 K
readout: solubility (mole fraction)

Could you share which solubility (mole fraction) value was measured for `CCCCCCCCCCCCCCCCCC(=O)OCCO` ?
0.0077

====

Settings: in cyclohexane, 294.65 K
readout: solubility (mole fraction)
// return a plain number; no unit text

// query solubility (mole fraction) value for entry `CCCCCCCCCCCCCCCCCC(=O)OCCO`
0.0033

====

Details: in 1,1,1-trichloroethane, 299.75 K
readout: solubility (mole fraction)
Please give only the number in your answer, with no unit.

For the compound `CCCCCCCCCCCCCCCCCCCC(=O)OCCO` , what solubility (mole fraction) is on record?
0.0469

====

Conditions: in ethanol, 322.45 K
readout: solubility (mole fraction)
The answer should be written as a number, with no unit following it.

Suppose we examine the compound `CCCCCCCCCCCCCCCCCCCCCC(=O)OCCO` ; what solubility (mole fraction) value has been reported?
0.0131

====

Details: in n-butyl acetate, 301.05 K
readout: solubility (mole fraction)
// no unit string in output, number only

Fill in: solubility (mole fraction) of `CCCCCCCCCCCCCCCCCCCC(=O)OCCO` is ___
0.0184

====

Conditions: in n-pentyl acetate, 303.75 K
readout: solubility (mole fraction)
In your answer, state the number alone without any accompanying words.

Query: solubility (mole fraction); subject: `CCCCCCCCCCCCCCCCCC(=O)OCCO`
0.0897

====

Settings: in ethanol, 324.15 K
readout: solubility (mole fraction)
Kindly provide the number alone.

Need solubility (mole fraction), item `CCCCCCCCCCCCCCCCCCCC(=O)OCCO`
0.0139

====

Conditions: in n-hexyl acetate, 317.15 K
readout: solubility (mole fraction)
# output: bare number, no unit

Requested read-out: solubility (mole fraction). Entry: `CCCCCCCCCCCCCCCCCC(=O)OCCO`
0.339

====

Conditions: in 1,1,1-trichloroethane, 287.55 K
readout: solubility (mole fraction)
Enter a number only.

# query: solubility (mole fraction) of entry `CCCCCCCCCCCCCCCCCCCCCC(=O)OCCO`
0.0101

====

Settings: in n-hexyl acetate, 313.73 K
readout: solubility (mole fraction)
Please respond with just the number, no unit label.

For the molecule `CCCCCCCCCCCCCCCCCC(=O)OCCO` , what solubility (mole fraction) is on record?
0.256

====

Settings: in 1,1,2-trichlorotrifluoroethane, 309.85 K
readout: solubility (mole fraction)

Please look up its solubility (mole fraction): `CCCCCCCCCCCCCCCCCC(=O)OCCO`
0.0307

====

Conditions: in ethyl acetate, 312.75 K
readout: solubility (mole fraction)
Form: value (number only, do not type unit).

Returns the measured solubility (mole fraction) for the input compound. Input: `CCCCCCCCCCCCCCCCCC(=O)OCCO`
0.233

====

Conditions: in trichloroethylene, 310.85 K
readout: solubility (mole fraction)

Name the reported solubility (mole fraction) value associated with the compound `CCCCCCCCCCCCCCCCCCCCCC(=O)OCCO`
0.0804

====

Conditions: in n-butyl acetate, 296.55 K
readout: solubility (mole fraction)
# output: bare number, no unit

What solubility (mole fraction) value was documented for this compound, `CCCCCCCCCCCCCCCCCCCC(=O)OCCO` ?
0.0065

====

Details: in cyclohexane, 300.05 K
readout: solubility (mole fraction)

I would be grateful if you could share the reported solubility (mole fraction) for `CCCCCCCCCCCCCCCCCCCCCC(=O)OCCO` .
0.0037

====

Conditions: in cyclohexane, 300.85 K
readout: solubility (mole fraction)
// keep it numeric: no unit symbol after the value

Could you tell me which solubility (mole fraction) is on file for `CCCCCCCCCCCCCCCCCC(=O)OCCO` ?
0.0135

====

Conditions: in isopropanol, 326.65 K
readout: solubility (mole fraction)
Lab note: record just the number, no unit beside it.

Returns the measured solubility (mole fraction) for the input compound. Input: `CCCCCCCCCCCCCCCCCCCCCC(=O)OCCO`
0.0241

====

Settings: in 1,1,1-trichloroethane, 311.75 K
readout: solubility (mole fraction)
// no unit, no text: just the number

Endpoint output: solubility (mole fraction) of `CCCCCCCCCCCCCCCCCCCCCC(=O)OCCO` . Value?
0.161

====

Conditions: in isopropanol, 319.95 K
readout: solubility (mole fraction)
// return a plain number; no unit text

Recorded solubility (mole fraction) for `CCCCCCCCCCCCCCCCCCCC(=O)OCCO` , please?
0.193

====

Settings: in n-butanol, 317.45 K
readout: solubility (mole fraction)
Number only, no unit.

So what's the measured solubility (mole fraction) for this one? `CCCCCCCCCCCCCCCCCCCC(=O)OCCO`
0.151

====

Settings: in n-propyl acetate, 306.45 K
readout: solubility (mole fraction)
Just the number, please.

solubility (mole fraction) lookup needed for `CCCCCCCCCCCCCCCCCC(=O)OCCO` , thanks.
0.137

====

Details: in n-butanol, 315.75 K
readout: solubility (mole fraction)

Request the reported solubility (mole fraction) associated with `CCCCCCCCCCCCCCCCCCCC(=O)OCCO`
0.0201

====

Details: in n-butyl acetate, 299.85 K
readout: solubility (mole fraction)
# output: bare number, no unit

What solubility (mole fraction) value was documented for this molecule, `CCCCCCCCCCCCCCCCCCCC(=O)OCCO` ?
0.0127

====

Settings: in isobutanol, 311.55 K
readout: solubility (mole fraction)
The response must contain the number and no unit.

Quick one: solubility (mole fraction) of `CCCCCCCCCCCCCCCCCCCCCC(=O)OCCO` ?
0.0082

====

Details: in n-butanol, 306.75 K
readout: solubility (mole fraction)
I only need the number, thanks.

Name the reported solubility (mole fraction) value associated with the molecule `CCCCCCCCCCCCCCCCCCCC(=O)OCCO`
0.0019

====

Conditions: in ethanol, 322.15 K
readout: solubility (mole fraction)
Just the number, please.

What value of solubility (mole fraction) has been reported for the following compound? `CCCCCCCCCCCCCCCCCCCC(=O)OCCO`
0.005

====

Details: in n-butyl acetate, 306.75 K
readout: solubility (mole fraction)
Form: value (number only, do not type unit).

Look at this molecule and give its reported solubility (mole fraction). `CCCCCCCCCCCCCCCCCC(=O)OCCO`
0.129

====

Settings: in n-pentyl acetate, 301.75 K
readout: solubility (mole fraction)
Kindly provide the number alone.

Consider the compound `CCCCCCCCCCCCCCCCCC(=O)OCCO` and give its measured solubility (mole fraction).
0.0655

====

Conditions: in n-butanol, 310.85 K
readout: solubility (mole fraction)
Reply with just the number.

May I ask what solubility (mole fraction) has been recorded for `CCCCCCCCCCCCCCCCCCCC(=O)OCCO` ?
0.0059

====

Conditions: in isopropanol, 310.95 K
readout: solubility (mole fraction)
Please give only the number in your answer, with no unit.

Quick check: solubility (mole fraction) of `CCCCCCCCCCCCCCCCCCCC(=O)OCCO` ?
0.0026

====

Details: in isopropanol, 325.65 K
readout: solubility (mole fraction)
Respond using a number only.

solubility (mole fraction) lookup needed for `CCCCCCCCCCCCCCCCCCCCCC(=O)OCCO` , thanks.
0.0069
